tested on: NCI-H522 lung; test: NCI tumour cell line growth inhibition, 48 h
measured.property: GI50

// solved cases for GI50 follow
INSERT INTO measurements (compound, value_reported) VALUES
  ('O=C(CCCCCCNC(=O)c1cnc(N(c2ccccc2)c2ccccc2)nc1)NO', '0.786 µM'),
  ('N=C1C(c2nc3ccccc3s2)=C(O)CN1c1ccc(F)c(Cl)c1', '11.5 µM'),
  ('Cc1nnn[n-]1.N.N.N.N.N.[Cl-].[Co+3]', '> 100 µM');

Fill in the recorded GI50 for this compound, with NCI-H522 lung as test system: CC1(C)C2CCC13C(=O)C1OC3(C2)C2C(=O)c3cc4ccccc4cc3C(=O)C12 (stereo not given)
23.1 µM

What GI50 appears in the records for this compound with NCI-H522 lung? O=C1C(Cl)=C(Nc2cccc(Cl)c2)C(=O)N1Cc1ccc(Cl)cc1
0.916 µM

====

test system: M14 melanoma; assay: NCI tumour cell line growth inhibition, 48 h; in the data active = GI50 below about 0.43 µM; inactive = the rest
Select the matching outcome among yes (1) for active, no (0) for inactive

Some solved cases for reference:
INSERT INTO assay_data (molecule, category) VALUES
  ('O=c1[nH]nnc2c1ncn2C1OC(CO)C(O)C1O (centres undefined)', 'no (0)'),
  ('COc1cc(/C=C\c2cc(OC)c(OC)c(OC)c2)cc(NC(=O)/C=C/c2cc(OC)c(OC)c(OC)c2)c1OC', 'no (0)'),
  ('CCCCON(OC(=O)c1ccc2ccccc2c1)C(=O)c1ccccc1', 'no (0)'),
  ('CCN(Cc1ccc(Cl)cc1)c1ccc(CO)c(Cl)c1', 'no (0)'),
  ('COc1ccc2[nH]cc(-c3ccc(-c4c[nH]c5ccc(OC)cc45)s3)c2c1', 'no (0)'),
  ('CCN(Cc1cc(Nc2nc(C)cn3c(-c4cn[nH]c4)cnc23)sn1)C(C)(C)CO', 'yes (1)'),
  ('CCOC(=O)c1c(C)nc2c(c1N)CC(=O)N2Cc1ccc(OC)cc1', 'no (0)'),
  ('CCN1C(=O)N(CC)C2C1NN=c1s/c(=C\c3cccc(F)c3)c(=O)n12 (centres undefined)', 'yes (1)');

Pending molecule:
State the result this test recorded for Oc1c(-c2nnc(-c3ccccc3Cl)o2)sc2nnc(-c3ccccc3)c(-c3ccccc3)c12 .
no (0)

====

system: CAKI-1 renal; experiment: NCI tumour cell line growth inhibition, 48 h
Known TGI of a selection of molecules

INSERT INTO results (molecule, measured_property, value_reported) VALUES
  ('O=C(O)CCN(CCCCN(CCC(=O)O)CCC(=O)O)CCC(=O)O', 'TGI', '> 100 µM'),
  ('CC(=O)N1C(OC(C)C)CC(C)N1c1ccccc1 (stereo unspecified)', 'TGI', '> 10 µM'),
  ('CC(=O)c1ccc2c(c1)c1c(C)c3c[n+](C)ccc3c(C)c1n2C', 'TGI', '> 76 µM'),
  ('N=C1C(c2nc3ccccc3s2)=C(O)CN1c1ccc(F)c(Cl)c1', 'TGI', '98.1 µM'),
  ('CN(/N=C/c1cccc2cccnc12)c1ccc([N+](=O)[O-])cc1[N+](=O)[O-]', 'TGI', '64.9 µM'),
  ('O=C(NNC(=S)Nc1ccccc1)c1cc(-c2ccccc2)nc2ccccc12', 'TGI', '64.8 µM'),
  ('COC(=O)[C@H](Cc1ccccc1)NP(=O)(OCCC#N)OCC1OC(n2cc(C)c(=O)[nH]c2=O)CC1N=[N+]=[N-] (stereo partly specified)', 'TGI', '> 100 µM'),
  ('C/C=C(\C)C(=O)NC1=CC[C@@]2(C)C(=CCC3C2CC[C@@]2(C)C3CC[C@@H]2C(C)N(C)C)C1=O (stereo partly specified)', 'TGI', '11.4 µM');

What value of TGI has been recorded for this entry: Cc1ccc2c(c1)C(=O)N(N(C)C)CC(=O)N2
> 100 µM

Requested field: TGI. Item: CC(=O)C1(Cc2cccc3ccccc23)S(=O)(=O)OCCOS1(=O)=O
30.1 µM
